Reported values of Activity for individual entries
Tested on: Mus musculus
experiment-notes: Analgesic activity in Swiss mouse assessed as increase in reaction time at 20 mg/kg, po after 60 mins by Eddy's hot plate technique
Format: functional
Field: numeric (%). Do not append units.

Solved cases (8 shown):
COc1ccc(Cl)c(-c2nnc3sc(Cc4c(C)[nH]c5ccc(OC)cc45)nn23)c1 ... 28.54
COc1ccc(Cc2nnc3sc(-c4ccnc5ccccc45)nn23)cc1OC ... 16.8
COc1ccc(Cc2nnc3sc(-c4ccnc(F)c4)nn23)cc1OC ... 10.3
COc1ccc2[nH]cc(Cc3nn4c(Cc5ccc(OC)c(OC)c5)nnc4s3)c2c1 ... 19.06
COc1ccc(Cc2nnc3n2NC(c2ccc([N+](=O)[O-])o2)S3)cc1OC (stereo not given) ... 10.3
COc1ccc(Cc2nnc3sc(Cc4c[nH]c5ccccc45)nn23)cc1OC ... 25
Cc1occc1-c1nnc2sc(-c3ccnc(F)c3)nn12 ... 6.2
COc1ccc(Cl)c(-c2nnc3sc(Cc4c[nH]c5ccc(OC)cc45)nn23)c1 ... 23.76

The recorded Activity for COc1ccc(Cc2nnc3sc(-c4cc(O)nc(O)c4)nn23)cc1OC is 14.1

The recorded Activity for Cc1occc1-c1nnc2n1NC(c1ccc([N+](=O)[O-])o1)S2 (stereo not given) is 15.68

---

Test system: Rattus norvegicus
experiment-notes: Antiinflammatory activity in Wistar Albino rat assessed as inhibition of carrageenan-induced paw oedema at 20 mg/kg after 1 hr relative to control
Assay type: functional
reported-endpoint: inhibition in vivo at 20 mg/kg (%)
Field: numeric (%). Do not append units.

Solved cases (5 shown):
Cc1cc(-c2nn3c(-c4ccoc4C)nnc3s2)c2ccccc2n1 ... 7.23
COc1ccc(Cc2nnc3sc(-c4ccnc(F)c4)nn23)cc1OC ... 11.1
COc1ccc2[nH]cc(Cc3nn4c(-c5ccoc5C)nnc4s3)c2c1 ... 16
COc1ccc(Cl)c(-c2nnc3sc(Cc4c(C)[nH]c5ccc(OC)cc45)nn23)c1 ... 11.3
COc1ccc(Cl)c(-c2nnc3n2NC(c2ccc[nH]2)S3)c1 (stereo unspecified) ... 12.8

Now look at this entry.
The recorded inhibition in vivo at 20 mg/kg for COc1ccc(Cl)c(-c2nnc3sc(Cc4c[nH]c5ccc(OC)cc45)nn23)c1 is 6.1

---

Test system: Bacillus subtilis
experiment-notes: Antibacterial activity against Bacillus subtilis at 20 ug/ml by agar plate diffusion technique
Type: functional
test-settings: read-out: IZ
Reported values of zone of inhibition at 20 µg/mL for individual entries

Solved cases (4 shown):
Cc1cc(-c2nn3c(-c4ccoc4C)nnc3s2)c2ccccc2n1 ... 12.5 mm
COc1ccc(Cc2nnc3sc(Cc4c[nH]c5ccccc45)nn23)cc1OC ... 7.32 mm
COc1ccc(Cc2nnc3n2NC(c2cccn2C)S3)cc1OC (stereo unspecified) ... 6.3 mm
Cc1occc1-c1nnc2n1NC(c1cccn1C)S2 (stereo unspecified) ... 7.48 mm

Now look at this entry.
zone of inhibition at 20 µg/mL value, target or system Bacillus subtilis, for COc1ccc(Cl)c(-c2nnc3n2NC(c2ccco2)S3)c1 (stereo unspecified) : 7.68 mm

---

Test system: Aspergillus niger
experiment-notes: Antifungal activity against Aspergillus niger at 30 ug/ml by paper disc method
Assay type: functional
test-settings: read-out: IZ
Reported values of zone of inhibition at 30 µg/mL for individual entries
Field: numeric (mm). Do not append units.

Solved cases (5 shown):
COc1ccc(Cc2nnc3sc(-c4cc(C)nc5ccccc45)nn23)cc1OC ... 16.7
COc1ccc(Cc2nnc3sc(-c4ccnc(F)c4)nn23)cc1OC ... 21
COc1ccc2[nH]c(C)c(Cc3nn4c(-c5ccoc5C)nnc4s3)c2c1 ... 12.4
COc1ccc(Cc2nnc3n2NC(c2ccc([N+](=O)[O-])o2)S3)cc1OC (stereo unspecified) ... 14.3
Cc1occc1-c1nnc(S)n1N ... 13.5

zone of inhibition at 30 µg/mL value, target or system Aspergillus niger, for COc1ccc(Cc2nnc3sc(-c4cc(-c5ccccc5)nc5ccccc45)nn23)cc1OC : 16.7

zone of inhibition at 30 µg/mL value, target or system Aspergillus niger, for Cc1occc1-c1nnc2sc(-c3ccnc(F)c3)nn12 : 22.7

zone of inhibition at 30 µg/mL value, target or system Aspergillus niger, for COc1ccc(Cl)c(-c2nnc3sc(-c4cc(C)nc5ccccc45)nn23)c1 : 18.5

zone of inhibition at 30 µg/mL value, target or system Aspergillus niger, for Cc1occc1-c1nnc2sc(-c3cc(O)nc(O)c3)nn12 : 14.8

zone of inhibition at 30 µg/mL value, target or system Aspergillus niger, for COc1ccc(Cc2nnc3n2NC(c2cccn2C)S3)cc1OC (stereo unspecified) : 12.6

zone of inhibition at 30 µg/mL value, target or system Aspergillus niger, for COc1ccc(Cc2nnc3n2NC(c2ccc[nH]2)S3)cc1OC (stereo unspecified) : 12.2
